assay: Elimination half life in human; assay type: ADME, organism-based; conditions: in vivo, read-out: beta t1/2 (converted)
Test readout: half-life (h)
Give just the number in h; leave the unit off.

Entry CC[C@H]1OC(=O)[C@H](C)[C@@H](O[C@H]2C[C@@](C)(OC)[C@@H](O)[C@H](C)O2)[C@H](C)[C@@H](O[C@@H]2O[C@H](C)C[C@H](N(C)C)[C@H]2O)[C@](C)(O)C[C@@H](C)CN(C)[C@H](C)[C@@H](O)[C@]1(C)O [AZITHROMYCIN] : reported half-life = ?
68

---

experiment: Drug level in Cftr-tml-Unc-TgN(FABPCFTR) cystic fibrosis mouse serum at 500 mg/kg, po after 1 hr; format: ADME, organism-based; design: dose 500 mg/kg, route oral; details: read-out: Drug uptake
Test readout: concentration at 1 h (ng/mL)
Unit ng/mL implied. Number only.

// returns reported concentration at 1 h for input CC[C@H]1OC(=O)[C@H](C)[C@@H](O[C@H]2C[C@@](C)(OC)[C@@H](O)[C@H](C)O2)[C@H](C)[C@@H](O[C@@H]2O[C@H](C)C[C@H](N(C)C)[C@H]2O)[C@](C)(O)C[C@@H](C)CN(C)[C@H](C)[C@@H](O)[C@]1(C)O
2900

---

assay: Drug level in Cftr-tml-Unc-TgN(FABPCFTR) cystic fibrosis mouse serum at 500 mg/kg, po after 2 hrs; type: ADME, organism-based; set-up: dose 500 mg/kg, route oral; settings: read-out: Drug uptake
Test readout: concentration at 2 h
Note: a bare number is incomplete; add the unit.

I'd like to know its concentration at 2 h. The compound in question is CC[C@H]1OC(=O)[C@H](C)[C@@H](O[C@H]2C[C@@](C)(OC)[C@@H](O)[C@H](C)O2)[C@H](C)[C@@H](O[C@@H]2O[C@H](C)C[C@H](N(C)C)[C@H]2O)[C@](C)(O)C[C@@H](C)CN(C)[C@H](C)[C@@H](O)[C@]1(C)O
3100 ng/mL

---

test: Drug level in Cftr-tml-Unc-TgN(FABPCFTR) cystic fibrosis mouse serum at 500 mg/kg, po after 4 hrs; assay type: ADME, organism-based; set-up: dose 500 mg/kg, route oral; conditions: read-out: Drug uptake
Test readout: concentration at 4 h (ng/mL)
// return numeric value only (unit: ng/mL, not printed)

Name the reported concentration at 4 h value associated with the molecule CC[C@H]1OC(=O)[C@H](C)[C@@H](O[C@H]2C[C@@](C)(OC)[C@@H](O)[C@H](C)O2)[C@H](C)[C@@H](O[C@@H]2O[C@H](C)C[C@H](N(C)C)[C@H]2O)[C@](C)(O)C[C@@H](C)CN(C)[C@H](C)[C@@H](O)[C@]1(C)O
1700

Numbers sourced from ChEMBL document CHEMBL1153831.
